# reported IC50; entries follow
# experimentalTarget: Angiotensin II receptor (AT-1) type-1 (Rattus norvegicus, UniProt P29089+P25095)
# experimentDescription: In vitro binding affinity to the angiotensin II receptor, type 1 in rat liver
*1 amine or outer side, *2 acyl side, *3 side chain or, on linkers, in order; H or OH if unused. Where a SMILES comes first, the peptide text is derived from it. Bridges are numbered along the chain shown (N, C = ends). [ ]: non-standard residue; d: D form. Pro(4R-SH) = O=C([C@@H]1C[C@@H](S[*:3])CN1[*:1])[*:2]; Pro(4S-SH) = O=C([C@@H]1C[C@H](S[*:3])CN1[*:1])[*:2]; hCys = N[C@@H](CCS)C(=O)O; Orn = NCCC[C@H](N)C(=O)O; Sar = CNCC(=O)O

Prompt: Need IC50 of CNCC(=O)N[C@@H](CCCN=C(N)N)C(=O)N1C[C@H]2C[C@H]1C(=O)N[C@@H](Cc1ccc(O)cc1)C(=O)N[C@H](C(=O)N[C@@H](Cc1c[nH]cn1)C(=O)N1CCC[C@H]1C(=O)N[C@@H](Cc1ccccc1)C(=O)O)CSS2 (H-[Sar]R[Pro(4R-SH)]YCHPF-OH; disulfide 3-5) , thanks.
Completion: 87 nM

Prompt: What about CNCC(=O)N[C@@H](CCCN=C(N)N)C(=O)N1C[C@@H]2C[C@H]1C(=O)N[C@@H](Cc1ccc(O)cc1)C(=O)N[C@H](C(=O)N[C@@H](Cc1c[nH]cn1)C(=O)N1CCC[C@H]1C(=O)N[C@@H](Cc1ccccc1)C(=O)O)CCSS2 (H-[Sar]R[Pro(4S-SH)]Y[hCys]HPF-OH; disulfide 3-5) ?
Completion: 510 nM

Prompt: Can you check CNCC(=O)N[C@@H](CCCNC(=N)N)C(=O)N[C@H]1CCSSCC[C@@H](C(=O)N[C@@H](Cc2cnc[nH]2)C(=O)N2CCC[C@H]2C(=O)N[C@@H](Cc2ccccc2)C(=O)O)NC(=O)[C@H](Cc2ccc(O)cc2)NC1=O (H-[Sar]R[hCys]Y[hCys]HPF-OH; disulfide 3-5) next?
Completion: 1.3 nM

Prompt: Ok, now CNCC(=O)N[C@@H](CCCN=C(N)N)C(=O)N[C@H]1CC(=O)NCCC[C@@H](C(=O)N[C@@H](Cc2c[nH]cn2)C(=O)N2CCC[C@H]2C(=O)N[C@@H](Cc2ccccc2)C(=O)O)NC(=O)[C@H](Cc2ccc(O)cc2)NC1=O (H-[Sar]RDY[Orn]HPF-OH; lactam 3-5)
Completion: 683 nM

Prompt: Note, next up: CNCC(=O)N[C@@H](CCCN=C(N)N)C(=O)N[C@H]1CCSS[C@@H]2C[C@@H](C(=O)N[C@@H](Cc3c[nH]cn3)C(=O)N3CCC[C@H]3C(=O)N[C@@H](Cc3ccccc3)C(=O)O)N(C2)C(=O)[C@H](Cc2ccc(O)cc2)NC1=O (H-[Sar]R[hCys]Y[Pro(4R-SH)]HPF-OH; disulfide 3-5)
Completion: 1.3 nM

Prompt: Entry CNCC(=O)N[C@@H](CCCN=C(N)N)C(=O)N[C@H]1CCSS[C@H]2C[C@@H](C(=O)N[C@@H](Cc3c[nH]cn3)C(=O)N3CCC[C@H]3C(=O)N[C@@H](Cc3ccccc3)C(=O)O)N(C2)C(=O)[C@H](Cc2ccc(O)cc2)NC1=O (H-[Sar]R[hCys]Y[Pro(4S-SH)]HPF-OH; disulfide 3-5) please
Completion: 110 nM

Prompt: Now the compound CNCC(=O)N[C@@H](CCCN=C(N)N)C(=O)N[C@H]1CSSC[C@@H](C(=O)O)NC(=O)[C@@H]2CCCN2C(=O)[C@H](Cc2c[nH]cn2)NC(=O)[C@H](C(C)C)NC(=O)[C@H](Cc2ccc(O)cc2)NC1=O (H-[Sar]RCYVHPC-OH; disulfide 3-8)
Completion: 520 nM
